- systemTested: Calmodulin-1 (Homo sapiens)
- assayNotes: calcium-bound CALM1 binders on microarrays, profiling panel, artefact control for SMM control-protein annotation, biochemical, small-molecule microarray, Cy5-labelled CALM1, plus calcium (AID 1112);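 also: score merges spot fluorescence with signal to noise from triplicate slides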
- measurementSetup: Cy5-CALM1 binding fluorescence, higher = more signal
Quick rule for you: composite z-score at 0.02 or higher means Criterion met, lower means Criterion not met.

Please review the following examples before continuing.
{"columns": ["smi", "systemTested", "qualitativeLabel"],
 "data": [
  ["NC(N)=NCc1cn(CCc2c[nH]c3ccccc23)nn1", "Calmodulin-1 (Homo sapiens)", "Criterion not met"],
  ["C=CCN1C(=O)[C@@]2(O[C@@H](CCO)[C@H]([Si](C)(C)c3ccc(OC)cc3)[C@H]2C)c2cc(N3C(=O)c4ccccc4Oc4ccccc43)ccc21", "Calmodulin-1 (Homo sapiens)", "Criterion met"],
  ["CCOC(=O)C[C@H]1[C@H](OC(=O)c2ccccc2-c2ccccc2)[C@@H](NC(=O)c2ccc3ccccc3n2)c2cc(OCCCO)ccc2N1C(=O)c1ccc2ccccc2n1", "Calmodulin-1 (Homo sapiens)", "Criterion not met"],
  ["CCOC(=O)[C@H]1C/C=C/C[C@H](C(=O)OCC)C(=O)O[C@H]2[C@@H](OC)O[C@H](CO)[C@@H](OC(=O)Nc3ccc(OC)cc3)[C@@H]2OC1=O", "Calmodulin-1 (Homo sapiens)", "Criterion met"],
  ["O=C1O[C@@H](c2ccccc2)[C@@H](c2ccccc2)N2[C@@H](c3ccc(O)cc3)[C@]3(C(=O)Nc4ccc(C#CCCO)cc43)[C@@H](C(=O)NC[C@H](O)c3ccccc3)[C@H]12", "Calmodulin-1 (Homo sapiens)", "Criterion met"],
  ["COCCOC(=O)N1C(=O)[C@@]2(c3cc(C#CC4=CCCCC4)ccc31)[C@H](c1ccccc1OCCO)N1[C@H](c3ccccc3)[C@H](c3ccccc3)OC(=O)[C@H]1[C@@H]2C(=O)N1CCc2cc(OC)c(OC)cc2C1", "Calmodulin-1 (Homo sapiens)", "Criterion not met"],
  ["O=C(CS)NCCCCCCNC(=O)[C@H]1C[C@H]2C(=O)N[C@@H](Cc3ccccc3)C(=O)N2[C@H]1c1cccc(OCCO)c1", "Calmodulin-1 (Homo sapiens)", "Criterion not met"],
  ["COc1cc(CO)cc(I)c1O[C@H]1C=C(C(=O)NCCO)C[C@@H](NCc2ccccc2F)[C@@H]1O", "Calmodulin-1 (Homo sapiens)", "Criterion not met"]
]}

Query: Evaluate C=CCOC(=O)[C@H]1[C@@H]2C(=O)O[C@@H](c3ccccc3)[C@@H](c3ccccc3)N2[C@@H](c2ccc(OCCOC(=O)[C@H]3C[C@H]4C(=O)N[C@@H](Cc5ccccc5)C(=O)N4[C@H]3c3cccc(OCCO)c3)cc2)[C@]12C(=O)Nc1ccc(I)cc12 : composite z-score at minimum 0.02?
Reply: Criterion met

Query: Form field: composite z-score at least 0.02? Entry: COc1ccc(NC(=O)O[C@H]2[C@H](OC(=O)Nc3ccc4c(c3)OCO4)[C@@H](OC(=O)Nc3ccc4c(c3)OCO4)[C@@H](OC)O[C@@H]2CO)cc1
Reply: Criterion not met

----------
- assayNotes: small-molecule microarray binders of probe aXIP, primary screen, biochemical, NeuroSMM set, 635/667 nm fluorescence (AID 1119);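 also: probe is the protein aXip251-270 applied at 1 µg/mL to compound-printed slides; binding of probe to printed compounds measured as 667 nm fluorescence plus signal to noise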
- measurementSetup: higher = more signal, called active from +8 up or from −8 down
composite Z-score overview
Give only the figure.

{"columns": ["molecule", "experimentalEndpoint", "observedMeasurement"],
 "data": [
  ["COc1ccc([Si](C)(C)[C@H]2[C@H](CCn3cc([C@H](O)c4ccccc4)nn3)O[C@@]3(C(=O)N(Cc4cccc(N5C(=O)c6cccc7cccc5c67)c4)c4ccccc43)[C@@H]2C)cc1", "composite Z-score", 0.674],
  ["Cc1ccc(S[C@]2(C(=O)NCC(F)(F)F)CC(=O)N(Cc3ccccc3)[C@@H]2c2ccc(CO)cc2)cc1", "composite Z-score", 0.363],
  ["COc1ccc([Si](C)(C)[C@@H]2[C@@H](CCn3cc([C@H](O)c4ccccc4)nn3)O[C@]3(C(=O)N(Cc4ccc(N5CCOC5=O)cc4)c4ccccc43)[C@H]2C)cc1", "composite Z-score", 0.0409]
]}

Query: // composite Z-score lookup, key: CCOC(=CC(=O)OC)CC(O)c1cccc(Cl)c1 (configuration not stated)
Reply: -0.114

Query: Report composite Z-score for COCCOC(=O)N1C(=O)[C@@]2(c3cc(C#CC4(O)CCCCCC4)ccc31)[C@H](C(=O)N1CCCCCCC1)[C@H]1C(=O)O[C@H](c3ccccc3)[C@H](c3ccccc3)N1[C@@H]2c1ccc(OCCO)cc1 please.
Reply: 3.82

Query: What value of measured composite Z-score is listed for C=CC[C@@]1(C(=O)N2CCCCC2)N=C(c2ccc(OCCCO)cc2)O[C@@H]1c1ccccc1 ?
Reply: -0.221

Query: Requested read-out: composite Z-score. Entry: C=CCN1C(=O)[C@@]2(O[C@@H](CCn3cc([C@H](O)c4ccccc4)nn3)[C@H]([Si](C)(C)c3ccc(OC)cc3)[C@H]2C)c2ccccc21
Reply: 0.363

----------
- systemTested: Torsin-1A-interacting protein 2 (Homo sapiens)
- assayNotes: LULL1 binders on small-molecule microarray, primary screen, cell lysate, human LULL1 lysate, 635/667 nm fluorescence (AID 1092);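 also: probe is lysate of COS7 cells overexpressing human LULL1; score merges per-feature 667 nm fluorescence with signal-to-noise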
- measurementSetup: hLULL1 lysate binding, 635 nm fluorescence, higher = more signal
// reported composite z-score for each item listed

These solved cases illustrate the format of a correct answer.
{"columns": ["compound", "experimentalEndpoint", "observedMeasurement"],
 "data": [
  ["Cc1ccc(S[C@]2(C(=O)NCCN3CCOCC3)CC(=O)N(Cc3ccccc3C(F)(F)F)[C@@H]2c2ccc(CO)cc2I)cc1", "composite z-score", 1.2],
  ["Cc1ccc(S[C@]2(C(=O)NC(C)C)CC(=O)N(Cc3ccccc3C(F)(F)F)[C@@H]2c2ccc(CO)cc2I)cc1", "composite z-score", 0.515]
]}

Query: Look up composite z-score for this compound: CON(C)C(=O)C=C1C[C@@H](c2cccc(Cl)c2)O[C@@H](c2cccc(Cl)c2)O1
Reply: 0.989

Query: Field request: composite z-score | item: COc1ccc([Si](C)(C)[C@H]2[C@H](CC(=O)N3Cc4ccccc4C[C@H]3CO)O[C@@]3(C(=O)N(Cc4cccc(N5CCCCC5=O)c4)c4ccccc43)[C@@H]2C)cc1
Reply: 1.79

Query: Param item = COc1ccc([Si](C)(C)[C@@H]2[C@@H](CCn3cc([C@H](O)c4ccccc4)nn3)O[C@]3(C(=O)N(Cc4ccc(N5CCOC5=O)cc4)c4ccccc43)[C@H]2C)cc1 ; retrieve measured composite z-score.
Reply: 0.995

Query: Record request: composite z-score value, item Cc1ccc(S[C@]2(C(=O)NCc3ccccc3)CC(=O)N(C(C)C)[C@@H]2c2ccc(CO)cc2I)cc1
Reply: 1.73

Query: // returns reported composite z-score for input C=CC[C@]12N=C(c3ccc(OCCCO)cc3)O[C@H]1c1ccccc1N(C)C2=O
Reply: 2.78

Query: May I ask what composite z-score has been recorded for Cc1c(NC(=O)/C(C#N)=C/C=C/c2ccc(N(C)C)cc2)c(=O)n(-c2ccccc2)n1C ?
Reply: 2.6

Query: Name the reported composite z-score value associated with the compound O=C1NC(=O)C2C1C=CC(C(O)c1cc(C(F)(F)F)cc(C(F)(F)F)c1)N2Nc1ccc(Cl)cc1Cl (stereo not drawn)
Reply: 2.24

Query: Given COC(=O)C1(Cc2ccccc2)C=C2C(=C(C(C)C)C(=O)C2C)CN1 (stereo not drawn) , state its recorded composite z-score.
Reply: 2.41

Query: Given O=C1NC(=O)C2C1C=CC(C(O)c1ccc(Br)cc1)N2Nc1ccccn1 (stereo not drawn) , state its recorded composite z-score.
Reply: 1.18

Query: Look up composite z-score for this compound: NCCCCCCNC(=O)[C@H]1C[C@H]2C(=O)N[C@@H](Cc3ccccc3)C(=O)N2[C@H]1c1ccc(O)cc1
Reply: 2.45

----------
- systemTested: Torsin-1A-interacting protein 1 (Homo sapiens)
- assayNotes: LAP1 binders from COS7 cell lysate, primary screen, small-molecule microarray, 635/667 nm fluorescence (AID 1116)
- measurementSetup: COS7-hLAP1 lysate binding, 635 nm fluorescence, higher = more signal
experimentalEndpoint: composite z-score
// no unit, no text: just the number

Answered examples (2):
{"columns": ["smi", "systemTested", "experimentalEndpoint", "observedMeasurement"],
 "data": [
  ["Cc1ccc(S[C@]2(C(=O)O)CC(=O)N(Cc3ccccc3Cl)[C@@H]2c2ccc(CO)cc2)cc1", "Torsin-1A-interacting protein 1 (Homo sapiens)", "composite z-score", 0.0695],
  ["O=C1C[C@]2(c3ccc([N+](=O)[O-])cc3)C(=O)N(Cc3ccccc3)c3cc(CO)ccc3[C@H]2N1CC12CC3CC(CC(C3)C1)C2", "Torsin-1A-interacting protein 1 (Homo sapiens)", "composite z-score", -0.0647]
]}

Here's the next entry for you.
Query: Which measured composite z-score value corresponds to C=CCOC(=O)[C@@H]1[C@H]2C(=O)O[C@H](c3ccccc3)[C@H](c3ccccc3)N2[C@H](c2ccc(OCCOC(=O)[C@H]3C[C@H]4C(=O)N[C@@H](CCCCNC(C)=O)C(=O)N4[C@H]3c3cccc(OCCO)c3)cc2)[C@@]12C(=O)Nc1ccc(I)cc12 ?
Reply: 0.97
